Field: inhibition in vivo at 10 mg/kg. Provide a value for each of the compounds that follow.
Tested on: Rattus norvegicus
Experiment: Anti-inflammatory activity in Wistar Rattus norvegicus (rat) assessed as inhibition of carrageenan-induced paw edema at 10 mg/kg, ip measured after 3 hr
Assay type: functional
Settings: route intraperitoneal
Answers are plain numbers, in %.

Below, each entry is followed by its recorded inhibition in vivo at 10 mg/kg result.
| Structure As Smiles | Value Units | inhibition in vivo at 10 mg/kg |
| --- | --- | --- |
| COc1cccc(/C=N/NC(=O)c2cccnc2Nc2cccc(C(F)(F)F)c2)c1 | % | 30.3 |
| O=C(N/N=C/c1ccncc1)c1cccnc1Nc1cccc(C(F)(F)F)c1 | % | 54.9 |
| O=C(N/N=C/c1ccc(O)cc1)c1cccnc1Nc1cccc(C(F)(F)F)c1 | % | 59.5 |
| O=C(N/N=C/c1ccc(F)cc1)c1cccnc1Nc1cccc(C(F)(F)F)c1 | % | 41.3 |
| CNc1ncccc1C(=O)N/N=C/c1cccc(OC)c1 | % | 49.5 |
| O=C(N/N=C/c1ccc(Cl)cc1)c1cccnc1Nc1cccc(C(F)(F)F)c1 | % | 48.5 |
| O=C(N/N=C/c1cccc(O)c1)c1cccnc1Nc1cccc(C(F)(F)F)c1 | % | 49 |
| CNc1ncccc1C(=O)N/N=C/c1cccc(Cl)c1 | % | 39.5 |
| CN(C)c1ccc(/C=N/NC(=O)c2cccnc2Nc2cccc(C(F)(F)F)c2)cc1 | % | 39.5 |
| CNc1ncccc1C(=O)N/N=C/c1ccc(Cl)cc1 | % | 22.4 |

Batch lookup, inhibition in vivo at 10 mg/kg per entry.
1. COc1cc(/C=N/NC(=O)c2cccnc2Nc2cccc(C(F)(F)F)c2)cc(OC)c1OC
2. CNc1ncccc1C(=O)N/N=C/c1cccnc1
3. COc1ccc(/C=N/NC(=O)c2cccnc2Nc2cccc(C(F)(F)F)c2)c(OC)c1
4. COc1ccc(/C=N/NC(=O)c2cccnc2Nc2cccc(C(F)(F)F)c2)cc1
5. CNc1ncccc1C(=O)N/N=C/c1ccncc1

[28.5, 27.7, 24.1, 26.5, 55]

* * *

Field: inhibition in vivo at 10 mg/kg. Provide a value for each of the compounds that follow.
Tested on: Rattus norvegicus
Experiment: Anti-inflammatory activity in Wistar Rattus norvegicus (rat) assessed as inhibition of carrageenan-induced paw edema at 10 mg/kg, ip measured after 3 hr
Format: functional
Conditions: route intraperitoneal
One number for each entry, in %.

Below, each entry is followed by its recorded inhibition in vivo at 10 mg/kg result.
| Structure As Smiles | inhibition in vivo at 10 mg/kg (%) |
| --- | --- |
| O=C(N/N=C/c1ccccc1)c1cccnc1Nc1cccc(C(F)(F)F)c1 | 21.2 |
| O=C(N/N=C/c1ccc(O)c(O)c1)c1cccnc1Nc1cccc(C(F)(F)F)c1 | 38.2 |
| O=C(N/N=C/c1cccc(F)c1)c1cccnc1Nc1cccc(C(F)(F)F)c1 | 37 |
| O=C(O)c1cccnc1Nc1cccc(C(F)(F)F)c1 | 70.6 |

Batch lookup, inhibition in vivo at 10 mg/kg per entry.
1. CNc1ncccc1C(=O)N/N=C/c1ccccc1
2. COc1ccc(/C=N/NC(=O)c2cccnc2Nc2cccc(C(F)(F)F)c2)cc1OC
3. O=C(N/N=C/c1cccc(Cl)c1)c1cccnc1Nc1cccc(C(F)(F)F)c1

1: 22.7; 2: 44; 3: 55.2

Fill in: inhibition in vivo at 10 mg/kg of O=C(N/N=C/c1cccnc1)c1cccnc1Nc1cccc(C(F)(F)F)c1 is ___
52.4
